- experiment: Pharmacokinetic experiment, rat test, gavage administration
- Type: in vivo, SD rats
- experimental_context: Sprague-Dawley, rat, plasma, po, female SD rats, 10 mg/kg, read-out: blood concentration Cmax
value_kind: Cmax

For COc1c([C@H]2[C@H](C(=O)Nc3ccnc(C(N)=O)c3)O[C@@](C)(C(F)(F)F)[C@H]2C)ccc(F)c1F [VX-548, reference compound] , what is its reported Cmax?
719 ng/mL

====

- experiment: Pharmacokinetic experiment, dog test, intravenous injection
- Type: in vivo
- experimental_context: dog, plasma, male Beagle, 0.5 mg/kg, read-out: half-life t½ (converted)
value_kind: half-life (h)
Kindly provide the numeric value in h only, without the unit symbol.

For COc1c([C@H]2[C@H](C(=O)Nc3ccnc(C(N)=O)c3)O[C@@](C)(C(F)(F)F)[C@H]2C)ccc(F)c1F [VX-548, reference compound] , what is its reported half-life?
19.7
